Each recorded value in this set is attributed to the supplement of paper PMC8047044.

# Tested on: Neuro-2a
# experimentDescription: neurite formation score, plate-normalized to DMSO control mean 5.04 (score (0-8 scale)); higher = more or longer neurites
# conditionParameters: 1 µM
Counter-ions that a name gives are not always drawn.
Values of neurite formation score greater than or equal to 4 map to yes; values below map to no.

# example entries with known answers
COc1cc2c(N3CCN(C(=O)Nc4ccc(OC(C)C)cc4)CC3)ncnc2cc1OCCCN1CCCCC1 ... yes
CN1CCN(c2cccc(Nc3nc4c(-c5ccc(S(C)(=O)=O)cc5)cccn4n3)c2)CC1 ... yes

In: Tell me whether neurite formation score is at least 4 here: C=CC(=O)N1CCC(Oc2cc3c(Nc4ccc(Cl)c(Cl)c4F)ncnc3cc2OC)CC1
Out: yes

In: Is neurite formation score for CNC(=O)c1cc(Oc2ccc(NC(=O)Nc3ccc(Cl)c(C(F)(F)F)c3)cc2)ccn1 [Sorafenib] at or above 4?
Out: yes

In: Entry Cn1cc(C2=C(c3cn(CCCSC(=N)N)c4ccccc34)C(=O)NC2=O)c2ccccc21 [Ro 31-8220 Mesylate] : is its neurite formation score no less than 4?
Out: yes

In: Tell me whether neurite formation score is at least 4 here: C=CC(=O)Nc1ccc2ncnc(Nc3cccc(Br)c3)c2c1
Out: yes

In: Check the entry COc1ccc(-c2nc(N3CCOCC3)c3sc(CN(C)c4ncc(C(=O)NO)cn4)cc3n2)cn1 : does neurite formation score equal or exceed 4?
Out: yes

In: Hello, I need to know if O=c1cc(N2CCOCC2)oc2c(-c3cccc4c3sc3ccccc34)cccc12 has measured neurite formation score not below 4. Thanks!
Out: no

---

# System: Neuro-2a
# experimentDescription: neurite formation score, plate-normalized to DMSO control mean 5.04 (score (0-8 scale)); higher = more or longer neurites
# conditionParameters: 0.1 µM
neurite formation score values by entry
Just the number, please.

Here is how some compounds turned out for neurite formation score.
COc1ccccc1-c1cc(Nc2cccc(CS(N)(=O)=O)c2)ncn1 ... 4.42
Cc1nc(Nc2n[nH]c3c2CN(C(=O)N[C@H](CN(C)C)c2ccccc2)C3(C)C)c2sccc2n1 ... 4.92
C1=N/C2=N/c3ccc(OCCN4CCCC4)c(c3)COC/C=C/COCc3cccc(c3)C(=C1)N2 ... 4.92
Cc1ccc(-n2nc(C(C)(C)C)cc2NC(=O)Nc2ccc(OCCN3CCOCC3)c3ccccc23)cc1 ... 4.21

Turning now to a further compound:
Briefly, neurite formation score measured for O=C(Cc1ccc(-c2ccc(OCCN3CCOCC3)cc2)cn1)NCc1ccccc1 : -0.243

---

# Tested on: Neuro-2a
# experimentDescription: neurite formation score, plate-normalized to DMSO control mean 5.04 (score (0-8 scale)); higher = more or longer neurites
# conditionParameters: 1 µM
measure: neurite formation score
Form field (numeric): enter value without unit.

Example entries begin here.
NC(=O)c1cccc(-c2cc(Nc3ccc(OC(F)(F)F)cc3)ncn2)c1 ... 5.14
COc1cc2c(Oc3ccc(NC(=O)C4(C(=O)Nc5ccc(F)cc5)CC4)cc3F)ccnc2cc1OCCCN1CCOCC1 ... 3.24
CNC(=O)c1cc(Oc2ccc(NC(=O)Nc3cc(C(C)(C)C)nn3-c3ccc4ncccc4c3)c(F)c2)ccn1 [DCC-2036 (Rebastinib)] ... 1.29

Entry CN(C)c1ccc(-c2nc3ncc(Cl)c(N4CCN(CC(=O)Nc5nccs5)CC4)c3[nH]2)cc1 — recorded neurite formation score = 3.8

Data point: Cc1cnc(Nc2ccc(F)cc2Cl)nc1-c1c[nH]c(C(=O)N[C@H](CO)c2cccc(Cl)c2)c1 ; neurite formation score = 3.69

neurite formation score reading for CN1CCN(c2ccc3nc(-c4c(N)c5c(F)cccc5[nH]c4=O)[nH]c3c2)CC1 [Dovitinib (TKI-258, CHIR-258)] : 4.88

The measured neurite formation score associated with Nc1ncnc2n[nH]c(Nc3ccc(F)cc3)c12 reads 4.88

Record summary for Cc1ccc(-c2nn(C(C)(C)C)c3ncnc(N)c23)cc1 : reported neurite formation score = 2.9

CN1CCN(c2nc(C3=C(c4c[nH]c5ccccc45)C(=O)NC3=O)c3ccccc3n2)CC1 yielded neurite formation score of 5.96

Memo: O=C1NC(=O)[C@@H](c2cn3c4c(cccc24)CCC3)[C@@H]1c1c[nH]c2ccccc12 [Tivantinib (ARQ 197)] , reported neurite formation score: 0.236

Consider CN1CCN(c2ccc(C(=O)Nc3n[nH]c4ccc(Cc5cc(F)cc(F)c5)cc34)c(NC3CCOCC3)c2)CC1 . Its measured neurite formation score is 2.54

The reported neurite formation score of the molecule C=CC(=O)Nc1ccc2ncnc(Nc3ccc(OCc4cccc(F)c4)c(Cl)c3)c2c1 was 4.24

Kindly note the recorded neurite formation score for CCN(CCCOc1ccc2c(Nc3cc(CC(=O)Nc4cccc(F)c4)[nH]n3)ncnc2c1)CCOP(=O)(O)O , which is 4.91

---

# Tested on: Neuro-2a
# experimentDescription: neurite formation score, plate-normalized to DMSO control mean 5.04 (score (0-8 scale)); higher = more or longer neurites
# conditionParameters: 0.1 µM
Quick list: neurite formation score per entry.
Give your answer as a number; write no unit.

Answered cases to consult:
Cc1ncc(-c2ccnc(Nc3ccc(S(C)(=O)=O)cc3)n2)n1C(C)C ... 3.54
COc1ccc(C(=O)Nc2sc3c(c2C(N)=O)CCCC3)cc1OC ... 4.71
CS(=O)(=O)c1ccc(-c2cnc(N)c(C(=O)Nc3ccccc3)n2)cc1 ... 3.04
CC(C)(C)n1nc(Cc2cccc3ccccc23)c2c(N)ncnc21 ... 4.58
CN([C@@H](Cc1ccc(OS(=O)(=O)c2cccc3cnccc23)cc1)C(=O)N1CCN(c2ccccc2)CC1)S(=O)(=O)c1cccc2cnccc12 ... 4.54

// neurite formation score value for FC(F)(F)c1ccc(/C=C/c2nc(COc3ccc(CCCCn4ccnn4)cc3)co2)cc1 : 4.76

So for COc1c(OCCCN2CCOCC2)ccc2c3n(c(=NC(=O)c4cnc(N)nc4)nc12)CCN3 , the logged neurite formation score turned out to be 4.76

// neurite formation score lookup, molecule = CCN(CC)CCNC(=O)c1c(C)[nH]c(/C=C2\C(=O)Nc3ccc(F)cc32)c1C [Sunitinib malate] , result: 5.21

---

# System: Neuro-2a
# experimentDescription: neurite formation score, plate-normalized to DMSO control mean 5.04 (score (0-8 scale)); higher = more or longer neurites
# conditionParameters: 1 µM
Where a name gives a salt, the structure may show the parent alone.
measure: neurite formation score
The answer should be written as a number, with no unit following it.

Known neurite formation score results, listed for orientation:
Cc1ccc(Nc2nccc(N(C)c3ccc4c(C)n(C)nc4c3)n2)cc1S(N)(=O)=O [Pazopanib Hydrochloride] ... 3.57
O=C1NC(=O)C(c2ccccc2[N+](=O)[O-])=C1Nc1ccc(O)c(Cl)c1 ... 3.9
Clc1ccc(Nc2nnc(Cc3ccncc3)c3ccccc23)cc1 ... 4.69
Cc1c(F)cc(C(=O)NC2CC2)cc1-c1ccc(C(=O)NCC(C)(C)C)cn1 ... 5.21
CC1=C(C(=O)Nc2cc3cn[nH]c3cc2F)C(c2ccc(C(F)(F)F)cc2)CC(=O)N1 (centres undefined) ... 0.236

Observed neurite formation score on Neuro-2a, entry CC(C)CCN1c2nc(Nc3cc(F)c(O)c(F)c3)ncc2N(C)C(=O)C1C (centres undefined) , equals 4.21

Tested system Neuro-2a; neurite formation score recorded for O=C(NOCC(O)CO)c1cc(Br)c(F)c(F)c1Nc1ccc(I)cc1F (centres undefined) was 4.57

Known value: Neuro-2a neurite formation score of the compound Cc1[nH]c(/C=C2\C(=O)Nc3ccc(S(=O)(=O)Cc4c(Cl)cccc4Cl)cc32)c(C)c1C(=O)N1CCC[C@@H]1CN1CCCC1 equals 3.91

Item Nc1ncnc2c1c(-c1cnc3[nH]ccc3c1)nn2C1CCCC1 was tested on Neuro-2a; the reported neurite formation score is 3.21

---

# Tested on: Neuro-2a
# experimentDescription: neurite formation score, plate-normalized to DMSO control mean 5.04 (score (0-8 scale)); higher = more or longer neurites
# conditionParameters: 0.1 µM
Below, each entry is listed with its recorded neurite formation score.
Form: value (number only, do not type unit).

Observe how each entry below is paired with its result.
COc1cc2c(Oc3ccc(NC(=O)C4(C(=O)Nc5ccc(F)cc5)CC4)cc3F)ccnc2cc1OCCCN1CCOCC1 ... 3.38
CCN(CC)CCCC(C)Nc1nc(C)cc(Nc2ccc3nc(C)cc(N)c3c2)n1 (stereo not drawn) ... 5.38
Clc1ccc(C2(c3ccc(-c4cn[nH]c4)cc3)CCNCC2)cc1 ... 4.54
Cn1c(=O)n(-c2ccc(C(C)(C)C#N)cc2)c2c3cc(-c4cnc5ccccc5c4)ccc3ncc21 ... 5.21

The molecule NC(=O)c1cnc(N[C@@H]2CCCC[C@@H]2N)nc1Nc1cccc(-n2nccn2)c1 showed neurite formation score equal to 4.92

Memo: O=C1NCCCc2c1oc1ccc(O)cc21 , reported neurite formation score: 4.58

So, O=c1cc(N2CCOCC2)oc2c(-c3ccccc3)cccc12 ? Its neurite formation score was 4.21

Record O=c1sn(-c2cccc3ccccc23)c(=O)n1Cc1ccccc1 . Reported neurite formation score: 5.08
